- Tested on: AKT1 (Homo sapiens)
- Construct: Insect cells expressing His-tagged AKT1 (aa 136-480) were lysed; His
- Sequence (P31749 136-480): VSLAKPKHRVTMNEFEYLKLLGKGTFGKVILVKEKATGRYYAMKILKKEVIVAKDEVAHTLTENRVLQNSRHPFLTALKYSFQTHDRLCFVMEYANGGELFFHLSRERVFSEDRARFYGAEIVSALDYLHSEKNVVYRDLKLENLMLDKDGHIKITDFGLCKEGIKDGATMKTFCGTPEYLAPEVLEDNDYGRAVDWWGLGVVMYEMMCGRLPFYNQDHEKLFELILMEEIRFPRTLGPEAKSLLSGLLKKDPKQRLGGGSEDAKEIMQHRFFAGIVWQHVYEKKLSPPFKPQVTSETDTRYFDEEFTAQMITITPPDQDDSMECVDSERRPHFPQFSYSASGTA
- Experiment notes: AKT1 kinase inhibition assay (substrate phosphorylation, SPA)
- Measurement conditions: catalytic domain of AKT1; 10 nM activated AKT enzyme, 4 uM ATP, 8 uM peptide, 40 minutes at room temperature
- Protocol: Isolation and Purification of His-tagged AKT1 (aa 136-480) Insect cells expressing His-tagged AKT1 (aa 136-480) were lysed in 25 mM HEPES, 100 mM NaCl, 20 mM imidazole; pH 7.5 using a polytron (5 mLs lysis buffer/g cells). Cell debris was removed by centrifuging at 28,000×g for 30 minutes. […] Compounds of the present invention are tested for AKT 1, 2, and 3 protein serine kinase inhibitory activity in substrate phosphorylation assays. […] Substrate phosphorylation is detected by the following procedure: […]
Observation type: pIC50
Remember, pIC50 is on a log scale: it is -log10 of the molar concentration.

Prompt line: // query pIC50 value for entry Cc1n[nH]c2ccc(-c3cc(OC[C@@H](N)Cc4ccccc4)cnc3-c3ccccc3)cc12 [Example 1]
Response line: 6.74
